Data provenance is patent US20210198256A1.

# System: SMARTCAR-MTH1-wt-HiBiT (Jurkat.7 cells)
# measurement-description: HiBit Lytic Assay (HiBit DC50, MTH1 degraders of Table 2)
# Type: cell-based, human
# recorded-conditions: Jurkat.7 SMARTCAR-MTH1-wt-HiBiT cells, compound treatment time 4 hr, 11-point half log dose response
# Protocol: Example 3. HiBit Lytic Assay • Compound is made at 10 mM, half log dilution, 11 points. • MDR plates can also be ordered from Frontier with same format. • 1. Barcode a 384LDV plate (384-well Low Dead Volume Microplate, Labcyte LP-0200) (Echo compatible) on the left side. • 2. Transfer 13.6 μL of 10 mM compound into column 1 of LDV plate (Labcyte). • 3. Fill column 2-11 and column 23 of MDR plate with 9.30 μL of DMSO. • 4. […]
quantity-kind: DC50

Worked cases, answers included:
>  <molecule>
CNc1c(C(=O)NC2CC2)cnc2cc(F)c(-c3ccc(C(=O)NCCCCn4cc(CNc5cccc6c5C(=O)N(C5CCC(=O)NC5=O)C6=O)nn4)c(F)c3)cc12 (stereo not drawn) [Compound 411]

>  <result>
< 100 nM

$$$$
>  <molecule>
CNC(=O)c1cnc2ccc(NCCCCCCCCCCNC(=O)CNc3cccc4c3CN(C3CCC(=O)NC3=O)C4=O)cc2c1Nc1ccccc1 (stereo not drawn) [Compound 441]

>  <result>
< 100 nM

$$$$

Could you share which DC50 value was measured for CNc1c(C(=O)NC2CC2)cnc2cc(F)c(-c3ccc(C(=O)NCCCCNC(=O)CCc4cccc5c4CN(C4CCC(=O)NC4=O)C5=O)c(F)c3)cc12 (stereo not drawn) [Compound 419] ?
< 100 nM

* * *

Parameter: DC50. Scope: all listed entries.
# target-or-test-system: BRD9 (Homo sapiens)
# Sequence (Q9H8M2 whole entry): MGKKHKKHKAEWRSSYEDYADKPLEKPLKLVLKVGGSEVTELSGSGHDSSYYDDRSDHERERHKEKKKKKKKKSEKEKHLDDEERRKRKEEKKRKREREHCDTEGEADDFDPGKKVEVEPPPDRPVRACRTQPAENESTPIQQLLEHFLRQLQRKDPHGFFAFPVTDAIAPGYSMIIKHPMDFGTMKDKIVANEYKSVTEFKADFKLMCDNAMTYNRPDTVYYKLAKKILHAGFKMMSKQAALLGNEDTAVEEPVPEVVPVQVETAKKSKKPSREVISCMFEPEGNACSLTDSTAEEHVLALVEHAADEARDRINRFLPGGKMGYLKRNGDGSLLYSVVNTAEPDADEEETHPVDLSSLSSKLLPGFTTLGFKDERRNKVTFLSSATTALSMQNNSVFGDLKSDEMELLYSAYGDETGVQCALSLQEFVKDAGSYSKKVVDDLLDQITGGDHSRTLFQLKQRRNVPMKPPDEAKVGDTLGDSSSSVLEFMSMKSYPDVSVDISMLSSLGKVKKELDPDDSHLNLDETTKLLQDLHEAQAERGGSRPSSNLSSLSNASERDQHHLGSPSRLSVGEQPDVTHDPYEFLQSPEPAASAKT
# measurement-description: HiBit Lytic Assay (HiBit DC50, BRD9 degraders of Table 1)
# Type: cell-based
# recorded-conditions: 11-point half log dose response, NanoLuc signal

See these solved cases before continuing.
>  <compound>
COc1cc(-c2cn(C)c(=O)c3[nH]ncc23)cc(OC)c1CNCC(=O)NCCCCCCCCCc1cccc2c1C(=O)N(C1CCC(=O)NC1=O)C2=O (stereo not drawn) [Compound 204]

>  <result>
< 100 nM

$$$$
>  <compound>
COc1cc(-c2cn(C)c(=O)c3[nH]ncc23)cc(OC)c1CN(C)CC(=O)NCCCCCCCCNc1cccc2c1C(=O)N(C1CCC(=O)NC1=O)C2=O (stereo not drawn) [Compound 201]

>  <result>
< 100 nM

$$$$
>  <compound>
COc1cc(-c2cn(C)c(=O)c3c2cnn3C)cc(OC)c1CNCC(=O)NCCCCCCCCCc1cccc2c1C(=O)N(C1CCC(=O)NC1=O)C2=O (stereo not drawn) [Compound 208]

>  <result>
< 100 nM

$$$$

Give DC50 (BRD9 (Homo sapiens)) of the following compound: COc1cc(-c2cn(C)c(=O)c3cnccc23)cc(OC)c1C(C)N(C)CC(=O)NCCCCCCCCNc1cccc2c1C(=O)N(C1CCC(=O)NC1=O)C2=O (stereo not drawn) [Compound 224]
< 100 nM

Test system BRD9 (Homo sapiens); read-out DC50; what value for COc1cc(-c2cn(C)c(=O)c3c2ccn3C)cc(OC)c1CN(C)CC(=O)NCCCCCCCCNC(=O)c1ccc(=O)n(C2CCC(=O)NC2=O)c1 (stereo not drawn) [Compound 218] ?
< 1000 nM

Item: COc1cc(-c2cn(C)c(=O)c3cnccc23)cc(OC)c1COCC(=O)NCCCCCCCCNc1cccc2c1C(=O)N(C1CCC(=O)NC1=O)C2=O (stereo not drawn) [Compound 223] Test system: BRD9 (Homo sapiens) Read-out: DC50 Value: ?
< 100 nM

Return DC50 measured with BRD9 (Homo sapiens) given this compound: COc1cc(-c2cn(C)c(=O)c3cnccc23)cc(OC)c1CNCC(=O)NCCCCCCCCNc1cccc2c1C(=O)N(C1CCC(=O)NC1=O)C2=O (stereo not drawn) [Compound 221]
< 100 nM

Could you share what DC50 was measured for COc1cc(-c2cn(C)c(=O)c3[nH]ncc23)cc(OC)c1CNCC(=O)NCCCCCCCCCc1ccc2c(c1)C(=O)N(C1CCC(=O)NC1=O)C2=O (stereo not drawn) [Compound 202] , tested on BRD9 (Homo sapiens)?
< 100 nM

Lookup: DC50 / BRD9 (Homo sapiens) / COc1cc(-c2cn(C)c(=O)c3c2cnn3C)cc(OC)c1CNCC(=O)NCCCCCCCCCc1ccc2c(c1)C(=O)N(C1CCC(=O)NC1=O)C2=O (stereo not drawn) [Compound 206]
< 100 nM

// lookup DC50 | system=BRD9 (Homo sapiens) | key= COc1cc(-c2cn(C)c(=O)c3c2ccn3C)cc(OC)c1CN(C)CC(=O)NCCCCCCCCNc1cccc2c1CN(C1CCC(=O)NC1=O)C2=O (stereo not drawn) [Compound 220]
< 100 nM

Give the reported DC50 for COc1cc(-c2cn(C)c(=O)c3c2cnn3C)cc(OC)c1CN(C)CC(=O)NCCCCCCCCNc1cccc2c1C(=O)N(C1CCC(=O)NC1=O)C2=O (stereo not drawn) [Compound 200] (system: BRD9 (Homo sapiens)).
< 100 nM

# query: DC50 | item COc1cc(-c2cn(C)c(=O)c(C)n2)cc(OC)c1CN(C)CC(=O)NCCCCCCCCNc1cccc2c1C(=O)N(C1CCC(=O)NC1=O)C2=O (stereo not drawn) [Compound 225] | system: BRD9 (Homo sapiens)
< 100 nM
